Target: Neu5Ac(a2-8)Neu5Ac
Assay: glycan array binding signal (z-score within array); higher = stronger binding
Conditions: glycan notation: IUPAC condensed, linker removed
Only a selection was taken, and the strongest signals are over-represented in it overall.
recorded metric: glycan array binding signal (z-score)
Lab note: jot the number down without any unit.

I'd like to know its glycan array binding signal (z-score). The binder in question is Cohesin-hDCIR (Homo sapiens) (protein) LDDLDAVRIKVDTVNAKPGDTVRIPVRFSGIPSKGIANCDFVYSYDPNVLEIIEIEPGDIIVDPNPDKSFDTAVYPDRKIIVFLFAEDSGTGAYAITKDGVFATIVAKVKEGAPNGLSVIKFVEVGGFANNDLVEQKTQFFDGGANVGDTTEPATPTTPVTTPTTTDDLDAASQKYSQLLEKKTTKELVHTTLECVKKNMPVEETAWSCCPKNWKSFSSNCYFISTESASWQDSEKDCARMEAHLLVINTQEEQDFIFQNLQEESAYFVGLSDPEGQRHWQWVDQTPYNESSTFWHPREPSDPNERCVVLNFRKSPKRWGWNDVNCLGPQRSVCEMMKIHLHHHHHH
-0.297
